Target: Excitatory amino acid transporter 3 (Homo sapiens)
Sequence (P43005 whole entry): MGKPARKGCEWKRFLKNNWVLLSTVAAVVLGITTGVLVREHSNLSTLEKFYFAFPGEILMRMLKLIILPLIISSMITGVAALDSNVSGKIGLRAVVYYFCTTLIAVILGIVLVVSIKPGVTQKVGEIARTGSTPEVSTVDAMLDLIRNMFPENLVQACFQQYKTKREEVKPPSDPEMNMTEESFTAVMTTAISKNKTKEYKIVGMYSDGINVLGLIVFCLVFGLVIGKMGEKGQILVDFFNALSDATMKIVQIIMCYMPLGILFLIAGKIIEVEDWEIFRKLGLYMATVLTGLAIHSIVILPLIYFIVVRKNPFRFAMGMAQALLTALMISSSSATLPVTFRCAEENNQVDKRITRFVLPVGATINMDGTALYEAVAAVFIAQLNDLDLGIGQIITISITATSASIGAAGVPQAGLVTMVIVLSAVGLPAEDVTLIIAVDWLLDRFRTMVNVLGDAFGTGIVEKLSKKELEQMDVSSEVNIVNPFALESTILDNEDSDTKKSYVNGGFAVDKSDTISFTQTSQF
Test: Inhibition of [3H]-D-aspartate uptake at human EAAT3 expressed in HEK293 cells after 6 mins by scintillation counting
IC50 by entry:
Experimental Readout: IC50

{"columns": ["Molecule", "Study Target", "Result"],
 "data": [
  ["COc1ccc2c(C3CC(=O)C4=C(C3)OC(N)=C(C#N)C4C)cc(=O)oc2c1 (stereo unspecified)", "Excitatory amino acid transporter 3 (Homo sapiens)", "> 300 µM"],
  ["CCN(CC)c1ccc2c(C3C(C#N)=C(N)OC4=C3C(=O)CC(c3cccc5ccccc35)C4)cc(=O)oc2c1 (stereo unspecified)", "Excitatory amino acid transporter 3 (Homo sapiens)", "> 300 µM"],
  ["CCN(CC)c1ccc2c(C)c(-c3ccc(C4C(C#N)=C(N)OC5=C4C(=O)CC(c4ccccc4)C5)cc3)c(=O)oc2c1 (stereo unspecified)", "Excitatory amino acid transporter 3 (Homo sapiens)", "> 300 µM"],
  ["CCN(CC)c1ccc2c(C3CC(=O)C4=C(C3)OC(N)=C(C#N)C4C)cc(=O)oc2c1 (stereo unspecified)", "Excitatory amino acid transporter 3 (Homo sapiens)", "> 300 µM"],
  ["COc1ccc2c(C)c(-c3ccc(C4C(C#N)=C(N)OC5=C4C(=O)CC(c4ccccc4)C5)cc3)c(=O)oc2c1 (stereo unspecified)", "Excitatory amino acid transporter 3 (Homo sapiens)", "> 300 µM"],
  ["COc1ccc2c(C3C(C#N)=C(N)OC4=C3C(=O)CC(c3ccccc3)C4)cc(=O)oc2c1 (stereo unspecified)", "Excitatory amino acid transporter 3 (Homo sapiens)", "> 300 µM"]
]}
